# pIC50 values compiled below
# target or system: MDMX (Homo sapiens)
# Sequence (O15151 1-125): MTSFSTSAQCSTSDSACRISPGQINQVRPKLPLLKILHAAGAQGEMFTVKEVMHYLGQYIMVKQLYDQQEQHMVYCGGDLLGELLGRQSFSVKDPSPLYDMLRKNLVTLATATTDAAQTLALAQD
# protocol details: Competitive fluorescence polarization assay for MDMX
# Format: binding
# test conditions: competitive FP assay, read-out: IC50 (MDMX)
pIC50: −log10 of the molar value. Where a SMILES comes first, the peptide text is derived from it. Bridges are numbered along the chain shown (N, C = ends). [ ]: non-standard residue; d: D form. 2Nal = N[C@@H](Cc1ccc2ccccc2c1)C(=O)O; R8 = C=CCCCCCC[C@@](C)(N)C(=O)O; Cba = N[C@@H](CC1CCC1)C(=O)O; S5 = C=CCCC[C@](C)(N)C(=O)O; Nle = CCCC[C@H](N)C(=O)O

CC(=O)N[C@@H](CC(C)C)C(=O)N[C@H](C(=O)N[C@@H](Cc1ccccc1)C(=O)N[C@]1(C)CCCCCCC=CCCC[C@@](C)(C(=O)N[C@@H](CO)C(=O)N[C@@H](C)C(=O)N[C@@H](CO)C(N)=O)NC(=O)[C@H](CC(C)C)NC(=O)[C@H](CCC(N)=O)NC(=O)[C@H](C)NC(=O)[C@H](Cc2c[nH]c3ccccc23)NC(=O)[C@H](Cc2ccc(O)cc2)NC(=O)[C@H](C)NC1=O)[C@@H](C)O [compound 122] (Ac-LTF[R8]AYWAQL[S5]SAS-NH2; staple 4-11) : 6.00 to 7.00
CC(=O)N[C@@H](C)C(=O)N[C@@H](C)C(=O)N[C@@H](CC(C)C)C(=O)N[C@H](C(=O)N[C@@H](Cc1ccccc1)C(=O)N[C@]1(C)CCCCCCC=CCCC[C@@](C)(C(=O)N[C@@H](CO)C(=O)N[C@@H](C)C(=O)N[C@@H](C)C(=O)N[C@@H](C)C(=O)N[C@H](C)C(N)=O)NC(=O)[C@H](CC2CCC2)NC(=O)[C@H](CCC(N)=O)NC(=O)[C@H](C)NC(=O)[C@H](Cc2c[nH]c3ccccc23)NC(=O)[C@H](Cc2ccc(O)cc2)NC(=O)[C@H](CCC(=O)O)NC1=O)[C@@H](C)O (single isomer, unassigned) : 7.00 to 8.00
CCCC[C@H](NC(=O)[C@H](C)NC(=O)[C@H](CCC(N)=O)NC(=O)[C@H](Cc1c[nH]cn1)NC(=O)[C@]1(C)CCCC=CCCCCCC[C@@](C)(NC(=O)[C@H](Cc2ccccc2)NC(C)=O)C(=O)N[C@@H](C)C(=O)N[C@@H](Cc2ccc(O)cc2)C(=O)N[C@@H](Cc2c[nH]c3ccccc23)C(=O)N[C@@H](CO)C(=O)N[C@@H](C)C(=O)N[C@@H](CC(C)C)C(=O)N1)C(N)=O [compound 39] (Ac-F[R8]AYWSAL[S5]HQA[Nle]-NH2; staple 2-9) : 6.00 to 7.00

# pIC50 of CCCC[C@H](NC(=O)[C@H](C)NC(=O)[C@H](C)NC(=O)[C@]1(C)CCCC=CCCCCCC[C@@](C)(NC(=O)[C@H](Cc2ccccc2)NC(=O)[C@@H](NC(=O)[C@H](CC(C)C)NC(C)=O)[C@@H](C)O)C(=O)N[C@@H](C)C(=O)N[C@@H](Cc2ccc(O)cc2)C(=O)N[C@@H](Cc2c[nH]c3ccccc23)C(=O)N[C@@H](C)C(=O)N[C@@H](CCC(N)=O)C(=O)N[C@@H](CC(C)C)C(=O)N1)C(=O)N[C@@H](C)C(=O)O (single isomer, unassigned) = > 8.00

Recorded result, CCCC[C@H](NC(=O)[C@H](C)NC(=O)[C@H](C)NC(=O)[C@]1(C)CCCC=CCCCCCC[C@@](C)(NC(=O)[C@H](Cc2ccccc2)NC(=O)[C@@H](NC(=O)[C@H](CC(C)C)NC(C)=O)[C@@H](C)O)C(=O)N[C@@H](C)C(=O)N[C@@H](Cc2ccc(O)cc2)C(=O)N[C@@H](Cc2c[nH]c3ccccc23)C(=O)N[C@@H](CO)C(=O)N[C@@H](CCC(N)=O)C(=O)N[C@@H](CCC(C)C)C(=O)N1)C(=O)N[C@@H](C)C(N)=O (single isomer, unassigned) , pIC50: 6.00 to 7.00

Lab book: pIC50 of CC(=O)N[C@@H](CC(C)C)C(=O)N[C@H](C(=O)N[C@@H](Cc1ccccc1)C(=O)N[C@]1(C)CCCCCCC=CCCC[C@@](C)(C(=O)N[C@@H](CO)C(=O)N[C@@H](C)C(=O)N[C@@H](C)C(N)=O)NC(=O)[C@H](CC2CCC2)NC(=O)[C@H](CCC(N)=O)NC(=O)[C@H](C)NC(=O)[C@H](Cc2ccc3ccccc3c2)NC(=O)[C@H](Cc2ccc(O)cc2)NC(=O)[C@H](CCC(=O)O)NC1=O)[C@@H](C)O [compound 254] (Ac-LTF[R8]EY[2Nal]AQ[Cba][S5]SAA-NH2; staple 4-11) noted as 6.00 to 7.00

Reported pIC50 ( CCCC[C@H](NC(=O)[C@H](C)NC(=O)[C@H](C)NC(=O)[C@]1(C)CCCC=CCCCCCC[C@@](C)(NC(=O)[C@H](Cc2ccccc2)NC(=O)[C@H](C)NC(=O)[C@H](CC(C)C)NC(C)=O)C(=O)N[C@@H](CCC(=O)O)C(=O)N[C@@H](Cc2ccc(O)cc2)C(=O)N[C@@H](Cc2c[nH]c3ccccc23)C(=O)N[C@@H](C)C(=O)N[C@@H](CCC(N)=O)C(=O)N[C@@H](CC(C)C)C(=O)N1)C(=O)N[C@@H](C)C(N)=O [compound 369] (Ac-LAF[R8]EYWAQL[S5]AA[Nle]A-NH2; staple 4-11) ) = 6.00 to 7.00

So, CCCC[C@H](NC(=O)[C@H](C)NC(=O)[C@H](C)NC(=O)[C@]1(C)CCCC=CCCCCCC[C@@](C)(NC(=O)[C@H](Cc2ccc(F)c(F)c2)NC(=O)[C@@H](NC(=O)[C@H](CC(C)C)NC(C)=O)[C@@H](C)O)C(=O)N[C@@H](C)C(=O)N[C@@H](Cc2ccc(O)cc2)C(=O)N[C@@H](Cc2c[nH]c3ccccc23)C(=O)N[C@@H](C)C(=O)N[C@@H](CCC(N)=O)C(=O)N[C@@H](CCC(C)C)C(=O)N1)C(=O)N[C@@H](C)C(N)=O (single isomer, unassigned) ? Its pIC50 was 6.00 to 7.00

Origin of values: patent US8927500B2
